measurementProtocol: ATG_BRE_CIS: Attagene CIS-FACTORIAL HepG2 Assay for human Bone Morphogenetic Protein (BMP) Response Element (BRE) (AID 2282933)
conditionParameters: HepG2 BMP response element reporter, Attagene transcription factor profiling; actives raise or lower the signal
Active and inactive are the calls of the source. Rule for the calls: active = hit-call score of the fitted dose curve at least 0.9, where 1 is the maximum; inactive = score below 0.9.
// one of true (1) = active, false (0) = inactive, no free text

Here's what some known entries look like.
[[record]]
compound = "NCCN1CCNCC1"
classification = "false (0)"

[[record]]
compound = "Nc1cc([N+](=O)[O-])ccc1C(=O)O"
classification = "false (0)"

[[record]]
compound = "CN(C)C(=O)Nc1ccccc1"
classification = "false (0)"

[[record]]
compound = "NC(=O)NC(N)=O"
classification = "false (0)"

[[record]]
compound = "O=C(O)c1cc2ccccc2cc1O"
classification = "false (0)"

[[record]]
compound = "C=CCCCCCCCCC(=O)OCC"
classification = "false (0)"

[[record]]
compound = "CC1=CC[C@@H]2C[C@H]1C2(C)C"
classification = "false (0)"

[[record]]
compound = "CC(C)COC(=O)c1ccccc1O"
classification = "false (0)"

[[record]]
compound = "COC(=O)C(C)Oc1ccc(Oc2ncc(C(F)(F)F)cc2Cl)cc1 (stereo unspecified)"
classification = "true (1)"

[[record]]
compound = "CCCO"
classification = "false (0)"


How did this test come out for CCn1cc(C(=O)O)c(=O)c2ccc(C)nc21 ?
false (0)

Please state the recorded outcome for this compound: CC(=O)OC(C)(C)C
false (0)

###

measurementProtocol: ATG_ERE_CIS: Attagene CIS-FACTORIAL HepG2 Assay for Estrogen Response Element (ERE) (AID 2282940)
conditionParameters: HepG2 ERE cis-reporter, Attagene RNA transcript; actives raise or lower the signal
Active and inactive are the calls of the source. Rule for the calls: active = hit-call score of the fitted dose curve at least 0.9, where 1 is the maximum; inactive = score below 0.9.
The reply should name one outcome from 1 = active, 0 = inactive

[[record]]
molecule = "CCC(=O)OCC=Cc1ccccc1"
classification = 0

[[record]]
molecule = "O=C(OCc1ccccc1)c1ccccc1O"
classification = 1

[[record]]
molecule = "CCn1cc(C(=O)O)c(=O)c2ccc(C)nc21"
classification = 0

[[record]]
molecule = "CCCCC1CCCCC(=O)O1 (stereo unspecified)"
classification = 0

[[record]]
molecule = "CC(C)=CC(=O)O"
classification = 1


Can you look up the reported call for O=C(O)CS for me?
0

// return assay outcome for COC(=O)C(C)Oc1ccc(Oc2ncc(C(F)(F)F)cc2Cl)cc1 (stereo unspecified)
0

What outcome does the record of this test show for CCOC(=O)CCCCCCCCC(=O)OCC ?
0

Given C=C/C(C)=C/C/C=C(\C)CCC=C(C)C , state the outcome it received in this test.
1

Tell me the assay call for [O-]/[N+](=N\O)c1ccccc1 please.
1

# fetch the recorded call for CCCCCCCCOC(C)=O here
0

Kindly provide the recorded test outcome for the following molecule: CC(CO)(CO)[N+](=O)[O-]
0

Fill in: this test's call for CC1=C(C=O)C(C)(C)CCC1 is ___
0

Tell me the recorded outcome of this test for CC12CCC(C1)C(C)(C)C2O (stereo unspecified) .
0

How was C=C(C)C(=O)OCCOCCOC(=O)C(=C)C classified in this test?
0

Just curious, what result did CCOc1ccc(NC(C)=O)cc1 get here?
0

Recorded values, source PubChem BioAssay (EPA / NIEHS).
